# System: HeLa S3 cells
# protocolText: HeLa S3 cell growth inhibition test (neutral red staining)
# Format: cell-based
# runConditions: Homo sapiens; HeLa S3, 72 hours culture with compound
measuredProperty: IC50 (nM)

Worked examples follow.
{"compound": "COc1cc(C(=O)/C(=C/c2c[nH]c3cccc(Cl)c23)SCC(O)CO)cc(OC)c1OC (centres unmarked) [Compound 24]", "systemName": "HeLa S3 cells", "reportedResult": 15}
{"compound": "COc1cc(C(=O)/C(=C/c2c[nH]c3ccccc23)OC(C)C)cc(OC)c1OC [Compound 4]", "systemName": "HeLa S3 cells", "reportedResult": 3.7}
{"compound": "CCCO/C(=C\\c1c[nH]c2ccccc12)C(=O)c1cc(OC)c(OC)c(OC)c1 [Compound 3]", "systemName": "HeLa S3 cells", "reportedResult": 13}

1: COc1cc(C(=O)/C(=C/c2c[nH]c3cc(C)ccc23)SCC(O)CO)cc(OC)c1OC (centres unmarked) [Compound 28]
2: COc1cc(C(=O)/C(=C/c2c[nH]c3ccccc23)Oc2ccc(Br)cc2)cc(OC)c1OC [Compound 8]
3: COc1cc(C(=O)/C(=C/c2cn(C)c3ccccc23)SCC(O)CO)cc(OC)c1OC (centres unmarked) [Compound 22]
Place the items in sequence of falling IC50. Put the labels in the requested order and list them out.
2, 3, 1

I: COc1cc(C(=O)/C(=C/c2c[nH]c3cc(Cl)ccc23)SCC(O)CO)cc(OC)c1OC (centres unmarked) [Compound 31]
II: COc1cc(C(=O)/C(=C/c2c[nH]c3ccccc23)Oc2ccccc2C)cc(OC)c1OC [Compound 7]
III: CCc1ccc2c(/C=C(\SCC(O)CO)C(=O)c3cc(OC)c(OC)c(OC)c3)c[nH]c2c1 (centres unmarked) [Compound 29]
IV: COC(=O)CS/C(=C\c1c[nH]c2ccccc12)C(=O)c1cc(OC)c(OC)c(OC)c1 [Compound 16]
Order each entry by recorded IC50, climbing from the minimum. The reply should contain the labels ordered as requested.
IV, I, III, II
(IV: 4.7 nM, I: 7.2 nM, III: 18 nM, II: 68 nM)

* * *

# Tested on: HeLa S3 cells
# protocolText: HeLa S3 cell growth inhibition test (neutral red staining)
# Format: cell-based
# runConditions: Homo sapiens; HeLa S3, 72 hours culture with compound
measuredProperty: IC50 (nM)

a: COc1cc(C(=O)C(=Cc2c[nH]c3cc(C)ccc23)SC[C@@H](O)[C@H](O)CO)cc(OC)c1OC
b: COc1cc(C(=O)/C(=C/c2c[nH]c3ccccc23)CCC(O)CO)cc(OC)c1OC (stereo not shown)
Lowest IC50? choose a or b # reply format: chosen label
b
(b: 2.1 nM, a: 5.3 nM)
